Below, each entry is listed with its recorded Ks.
- System: Salmonidae
- experiment: Displacement of ethidium bromide form salmon testes sperm DNA by fluorescence plate reader

structure_smiles: O=C1c2[nH]cc3c2C(=NCC3)c2c(-c3c[nH]c4ccccc34)c[nH]c21
target_under_test: Salmonidae
units_text: µM
Ks: 20
//
structure_smiles: Cn1cc2c3c1C(=O)c1[nH]cc(-c4ccc(O)cc4)c1C3=NCC2
target_under_test: Salmonidae
units_text: µM
Ks: 45
//
structure_smiles: O=C1c2[nH]cc3c2C(=NCC3)c2c(-c3ccc(O)cc3)c[nH]c21
target_under_test: Salmonidae
units_text: µM
Ks: 15
//
structure_smiles: Cn1cc2c3c1C(=O)c1[nH]cc(-c4ccc(O)cc4)c1C3=[N+]([O-])CC2
target_under_test: Salmonidae
units_text: µM
Ks: 30
//
structure_smiles: O=C1c2[nH]cc3c2C(=[N+](O)CC3)c2c(-c3ccc(O)cc3)c[nH]c21
target_under_test: Salmonidae
units_text: µM
Ks: 20

---

- target_under_test: DNA topoisomerase 1 (Homo sapiens) (UniProt P11387)
- Sequence (P11387 whole entry): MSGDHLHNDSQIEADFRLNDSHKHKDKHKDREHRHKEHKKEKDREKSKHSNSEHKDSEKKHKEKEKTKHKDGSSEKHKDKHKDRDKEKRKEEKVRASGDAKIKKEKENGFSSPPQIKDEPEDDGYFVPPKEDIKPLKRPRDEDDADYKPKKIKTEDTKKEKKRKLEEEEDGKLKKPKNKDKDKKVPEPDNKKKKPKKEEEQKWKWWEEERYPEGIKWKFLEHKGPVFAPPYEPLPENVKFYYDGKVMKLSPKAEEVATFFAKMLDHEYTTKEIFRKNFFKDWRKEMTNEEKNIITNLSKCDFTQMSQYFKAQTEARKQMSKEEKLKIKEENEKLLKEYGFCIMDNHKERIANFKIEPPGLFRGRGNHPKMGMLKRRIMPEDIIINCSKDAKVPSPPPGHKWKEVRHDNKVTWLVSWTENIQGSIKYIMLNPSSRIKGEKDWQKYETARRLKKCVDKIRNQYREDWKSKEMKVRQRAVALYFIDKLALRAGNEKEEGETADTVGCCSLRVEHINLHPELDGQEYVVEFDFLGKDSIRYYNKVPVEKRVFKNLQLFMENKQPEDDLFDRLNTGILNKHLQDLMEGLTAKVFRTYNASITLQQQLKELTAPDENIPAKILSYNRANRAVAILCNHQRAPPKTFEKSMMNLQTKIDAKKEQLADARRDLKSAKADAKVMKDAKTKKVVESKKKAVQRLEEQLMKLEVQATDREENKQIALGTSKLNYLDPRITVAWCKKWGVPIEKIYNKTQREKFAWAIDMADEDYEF
- experiment: Inhibition of topoisomerase 1-mediated relaxation of supercoiled DNA assessed as DNA cleavage at 500 uM relative to control
- Design: scale not given: the % may be the effect or the level left

structure_smiles: Cn1cc2c3c1C(=O)c1[nH]cc(-c4ccc(O)cc4)c1C3=NCC2
Activity [%]: 27
--
structure_smiles: O=C1c2[nH]cc3c2C(=[N+](O)CC3)c2c(-c3ccc(O)cc3)c[nH]c21
Activity [%]: 45
--
structure_smiles: O=C1c2[nH]cc3c2C(=NCC3)c2c(-c3ccc(O)cc3)c[nH]c21
Activity [%]: 59
--
structure_smiles: Cn1cc2c3c1C(=O)c1[nH]cc(-c4ccc(O)cc4)c1C3=[N+]([O-])CC2
Activity [%]: 26

---

- System: HCT-116
- experiment: Cytotoxicity against human HCT116 cells after 72 hrs by MTS assay
- Assay type: functional, cell-based
- condition_summary: HCT-116, 72 h
pIC50: −log10 of the molar value.
Item-by-item account of pIC50
measured_attribute: pIC50

compound: O=C1C2=C3C4=[N+](CCc5c(Br)[nH]c1c54)C1C(O)C(Br)=CC3(CCN2)C1O (stereo not drawn)
target_under_test: HCT-116
measured_attribute: pIC50
quantitative_result: 4.90

compound: O=C1C2=C(C3=NCCc4c(Br)[nH]c1c43)C1(C=C(Br)C(O)C(Br)=C1)CCN2 (stereo not drawn)
target_under_test: HCT-116
measured_attribute: pIC50
quantitative_result: 6.19

compound: O=C1C2=C3C4=[N+](CCc5c[nH]c1c54)[C@H]1C[C@@]34C[C@@H](N2)SC4=CC1=O
target_under_test: HCT-116
measured_attribute: pIC50
quantitative_result: 6.23

---

- Tested on: HCT-116
- experiment: Cytotoxicity against human HCT116 cells after 72 hrs by MTS assay
- Assay type: functional, cell-based
- condition_summary: HCT-116, 72 h
Criterion: IC50 strictly under 1000 nM. Met: t. Not met: f.

molecule: O=C1C2=C3C4=[N+](CCc5c[nH]c1c54)C1CC3(C=C(Br)C1O)CCN2 (configuration not stated) [DISCORHABDIN V]
target_under_test: HCT-116
group_label: f
--
molecule: O=C1C2=C(C3=NCCc4c[nH]c1c43)C1(C=CN2)C=C(Br)C(O)C(Br)=C1 (configuration not stated)
target_under_test: HCT-116
group_label: t
--
molecule: C[N+]1=C2C=C(N)C(=O)c3[nH]cc(c32)CC1 [MAKALUVAMINE C]
target_under_test: HCT-116
group_label: f
--
molecule: O=C1c2[nH]cc3c2C(=[N+](O)CC3)c2c(-c3ccc(O)cc3)c[nH]c21
target_under_test: HCT-116
group_label: f
--
molecule: O=C(O)CNC1C2C(=O)C=C3SC4CC31C1=C(N4)C(=O)c3[nH]cc4c3C1=[N+]2CC4 (configuration not stated) [DISCORHABDIN N]
target_under_test: HCT-116
group_label: f
--
molecule: O=C1c2[nH]cc3c2C(=NCC3)c2c(-c3ccc(O)cc3)c[nH]c21 [TSITSIKAMMAMINE A]
target_under_test: HCT-116
group_label: f
--
molecule: O=C1C2=C(C3=NCCc4c[nH]c1c43)C1(C=C(Br)C(O)C(Br)=C1)CCN2 (configuration not stated) [DIHYDRODISCORHABDIN C]
target_under_test: HCT-116
group_label: t
--
molecule: COC1[C@H]2C(=O)C=C3S[C@H]4C[C@]31C1=C(N4)C(=O)c3[nH]cc4c3C1=[N+]2CC4 (some centres not stated)
target_under_test: HCT-116
group_label: t
--
molecule: Cn1cc2c3c1C(=O)c1[nH]cc(-c4ccc(O)cc4)c1C3=NCC2 [TSITSIKAMMAMINE B]
target_under_test: HCT-116
group_label: f
--
molecule: O=C1C[C@H]2S[C@H]3C[C@]2(C=C1Br)C1=C(N3)C(=O)c2[nH]cc3c2C1=NCC3 [DISCORHABDINE A]
target_under_test: HCT-116
group_label: t
--
molecule: CN1CCc2c[nH]c3c2C1=CC(=O)C3=O [DAMIRONE B]
target_under_test: HCT-116
group_label: f
--
molecule: NC1[C@H]2C(=O)C=C3S[C@H]4C[C@]31C1=C(N4)C(=O)c3[nH]cc4c3C1=[N+]2CC4 (some centres not stated)
target_under_test: HCT-116
group_label: t
--
molecule: Cn1cc2c3c1C(=O)c1[nH]cc(-c4ccc(O)cc4)c1C3=[N+]([O-])CC2
target_under_test: HCT-116
group_label: f
--
molecule: CN1CCc2c[nH]c(C(=O)O)c2C1=O [MAKALUVIC ACID A]
target_under_test: HCT-116
group_label: f
--
molecule: O=C1C(Br)=CC2(C=C1Br)CCNC1=C2C2=NCCc3c(Br)[nH]c(c32)C1=O
target_under_test: HCT-116
group_label: t
--
molecule: O=C1C=CC23CC(NC4=C2C2=NCCc5c[nH]c(c52)C4=O)SC3=C1 (configuration not stated) [DISCORHABDIN G]
target_under_test: HCT-116
group_label: t
--
molecule: O=C1C2=C(C3=NCCc4c(Br)[nH]c1c43)C1(C=CN2)C=C(Br)C(O)C(Br)=C1 (configuration not stated)
target_under_test: HCT-116
group_label: t
